target: Peptide 5: Biotin-…-[Tyr(PC)]-acid; assay: scFv ELISA
Sequence (peptide, as listed by the source): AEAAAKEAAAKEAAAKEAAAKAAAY
readout_label: OD450 (OD450)
State the answer as a number, implicitly in OD450.

The following binders have reported results that may help.
1. PcOxP_DB03_B09 (scFv, V domains shown, scFv in periplasmic extract) VH: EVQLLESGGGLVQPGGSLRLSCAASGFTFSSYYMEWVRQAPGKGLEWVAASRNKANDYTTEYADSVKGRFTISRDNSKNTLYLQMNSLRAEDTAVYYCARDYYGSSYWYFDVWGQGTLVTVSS VL: DIVMTQSPDSLAVSLGERATINCTASESLYSSKHKVHYLAWYQQKPGQPPKLLIYGAANRYIGVPDRFSGSGSGTDFTLTISSLQAEDVAVYYCAQFYSYPLTFGGGTKVEIK ... 0.89
2. PcOxP_DB03_E12 (scFv, V domains shown, scFv in periplasmic extract) VH: EVQLLESGGGLVQPGGSLRLSCAASGETFSDFYMEWVRQAPGKGLEWVAASRNKWNDYTTEYADSVKGRFTISRDNSKNTLYLQMNSLRAEDTAVYYCARDYYGSSYWYFDVWGQGTLVTVSS VL: DIVMTQSPDSLAVSLGERATINCTASESLYSSKHKVNYLAWYQQKPGQPPKLLIYGASNRYIGVPDRFSGSGSGTDFTLTISSLQAEDVAVYYCAQFYSYPLTFGGGTKVEIK ... 0.88

Now for a further binder.
Q: State, in one line, measured OD450 of PcOxP_DB04_C03 (scFv, V domains shown, scFv in periplasmic extract) VH: EVQLLESGGGLVQPGGSLRLSCAASGFTTSDFYMEWVRQAPGKGLEWVAASRNKANSYTTEYADSVKGRFTISRDNSKNTLYLQMNSLRAEDTAVYYCARDYYGSSYWYFDVWGQGTLVTVSS VL: DIQMTQSPSSLSASVGDRVTITCTASESLYSSKHKVHYLAWYQQKPGKAPKLLIYGASSLYSGVPSRFSGSGSGTDFTLTISSLQPEDFATYYCAQFYEYPLTFGGGTKVEIK
Result: 1.87

Cited source: patent US20250320312A1
